The reported measurements were obtained from patent US7652047B2.

- ASSAYED_TARGET: MEK1^CA (human GST-MEK1, constitutively active, Ser218Asp and Ser222Asp) (Homo sapiens, UniProt Q02750, S218D/S222D)
- Construct: GST; made in house; host or cells: Escherichia coli
- Sequence (Q02750 whole entry S218D/S222D): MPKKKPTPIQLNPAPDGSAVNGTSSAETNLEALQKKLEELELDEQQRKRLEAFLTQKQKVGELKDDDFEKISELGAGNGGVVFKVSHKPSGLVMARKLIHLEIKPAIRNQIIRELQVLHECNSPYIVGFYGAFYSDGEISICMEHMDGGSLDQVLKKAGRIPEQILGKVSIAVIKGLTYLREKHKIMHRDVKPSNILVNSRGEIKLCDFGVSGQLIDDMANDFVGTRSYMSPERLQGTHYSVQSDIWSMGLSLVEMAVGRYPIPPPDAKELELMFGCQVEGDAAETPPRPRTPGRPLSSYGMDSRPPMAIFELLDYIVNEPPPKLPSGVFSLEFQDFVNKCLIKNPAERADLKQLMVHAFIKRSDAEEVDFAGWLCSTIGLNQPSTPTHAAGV
- PROTOCOL_NOTES: MEK1 enzymatic activity assay (MEK1^CA / ERK2 / MBP, [γ-33P]ATP incorporation)
- Assay type: biochemical
- CONDITION_LABEL: Table 1, compounds of formula I; read-out: Avg IC50
IC50: recorded values
READOUT_NAME: IC50

# COMPOUND, REPORTED_RESULT
data = [
    ("N#CNC(=N)c1c(O)nsc1Nc1ccc(Oc2ccccc2)cc1", "> 500 nM"),
    ("Cc1cccc(Nc2snc(O)c2C(=N)NCC2CCCCC2)c1", "> 500 nM"),
    ("CCCC1CCC(c2ccc(Nc3snc(O)c3C(=N)NCC3CCCCC3)cc2)CC1 (centres unmarked)", "> 500 nM"),
    ("CC(CO)NC(=N)c1c(O)nsc1Nc1cc(Cl)cc(Cl)c1 (centres unmarked)", "100 to 500 nM"),
    ("N=C(NCC1CCCCC1)c1c(O)nsc1Nc1ccc(Sc2ccccc2)cc1", "1 to 100 nM"),
]

###

- ASSAYED_TARGET: MEK1^CA (human GST-MEK1, constitutively active, Ser218Asp and Ser222Asp) (Homo sapiens, UniProt Q02750, S218D/S222D)
- Construct: GST; made in house; host or cells: Escherichia coli
- PROTOCOL_NOTES: MEK1 enzymatic activity assay (MEK1^CA / ERK2 / MBP, [γ-33P]ATP incorporation)
- Format: biochemical
- CONDITION_LABEL: Table 1, compounds of formula I; read-out: Avg IC50
pIC50: −log10 of the molar value.
Reported pIC50 values for a set of compounds
READOUT_NAME: pIC50

# COMPOUND, READOUT_NAME, REPORTED_RESULT
data = [
    ("N=C(NCc1ccccc1)c1c(O)nsc1Nc1ccc(Oc2cc(F)cc(F)c2)cc1", "pIC50", "7.00 to 9.00"),
    ("CC(C)NC(=N)c1c(O)nsc1Nc1cc(F)c(Oc2cc(Cl)ccc2Cl)cc1F", "pIC50", "7.00 to 9.00"),
    ("CNC(=N)c1c(O)nsc1Nc1ccc(Oc2ccc(F)cc2)c(Br)c1", "pIC50", "< 6.30"),
    ("CC(C)NC(=N)c1c(O)nsc1Nc1ccc(Oc2ccccc2)nc1", "pIC50", "< 6.30"),
    ("CC(CO)NC(=N)c1c(O)nsc1Nc1ccc(Oc2ccccc2Cl)c(F)c1 (stereo not drawn)", "pIC50", "7.00 to 9.00"),
    ("CC(CO)NC(=N)c1c(O)nsc1Nc1ccc(Oc2ccccc2F)c(F)c1 (stereo not drawn)", "pIC50", "7.00 to 9.00"),
    ("N=C(NCC(O)CO)c1c(O)nsc1Nc1cc(C(F)(F)F)cc(C(F)(F)F)c1 (stereo not drawn)", "pIC50", "< 6.30"),
    ("CC(CO)NC(=N)c1c(O)nsc1Nc1ccc(Oc2cc(F)ccc2Cl)c(F)c1 (stereo not drawn)", "pIC50", "7.00 to 9.00"),
    ("COC(=O)c1cccc(Nc2snc(O)c2C(=N)NCC(C)O)c1C (stereo not drawn)", "pIC50", "< 6.30"),
    ("Cc1ccccc1Oc1ccc(Nc2snc(O)c2C(=N)NC(C)C)cc1", "pIC50", "7.00 to 9.00"),
    ("CC(C)NC(=N)c1c(O)nsc1Nc1ccc(Oc2cc(F)ccc2Cl)c(F)c1", "pIC50", "7.00 to 9.00"),
    ("N=C(NCCO)c1c(O)nsc1Nc1ccc(Oc2ccc(Cl)cc2Cl)cc1", "pIC50", "6.30 to 7.00"),
    ("N=C(NCC(O)c1cccc(O)c1)c1c(O)nsc1Nc1ccc(Oc2ccccc2)cc1 (stereo not drawn)", "pIC50", "7.00 to 9.00"),
    ("CC(C)NC(=N)c1c(O)nsc1Nc1ccc(Oc2ccccc2F)c(F)c1", "pIC50", "7.00 to 9.00"),
    ("CC(C)NC(=N)c1c(O)nsc1Nc1ccc(Oc2cccc(F)c2F)nc1", "pIC50", "6.30 to 7.00"),
    ("N=C(NCCCN1CCCC1=O)c1c(O)nsc1Nc1ccc(Oc2ccccc2)cc1", "pIC50", "7.00 to 9.00"),
    ("Cc1cc(Oc2cccc(C(F)(F)F)c2)ccc1Nc1snc(O)c1C(=N)NC(C)C", "pIC50", "7.00 to 9.00"),
    ("CC(C)NC(=N)c1c(O)nsc1Nc1ccc(Oc2cc(C(F)(F)F)ccc2Cl)cc1F", "pIC50", "6.30 to 7.00"),
]

###

Reported IC50 values for a set of compounds
- ASSAYED_TARGET: MEK1^CA (human GST-MEK1, constitutively active, Ser218Asp and Ser222Asp) (Homo sapiens, UniProt Q02750, S218D/S222D)
- Construct: GST; made in house; host or cells: Escherichia coli
- PROTOCOL_NOTES: MEK1 enzymatic activity assay (MEK1^CA / ERK2 / MBP, [γ-33P]ATP incorporation)
- Type: biochemical
- CONDITION_LABEL: Table 1, compounds of formula I; read-out: Avg IC50
- Excerpt: Materials and preparation of reagents: Human GST-MEK1 and the constitutively active allele GST-MEK1^CA (harboring the mutations Ser218Asp and Ser222Asp) were subcloned into the […] expression vector pGEM4Z (Promega, Madison, Wis.) from the wild type human MEK1 cDNA. GST-MEK1^CA was expressed in Escherichia coli and partially purified using Glutathione Sepharose 4B affinity resin (Amersham Pharmacia Biotech, Piscataway, N.J.). […]

# COMPOUND, IC50
measured = [
    ("N=C(NCC1CCCCC1)c1c(O)nsc1Nc1ccc(/N=N/c2ccccc2)cc1 [compound 128]", "100 to 500 nM"),
    ("N=C(NCc1ccc(C(F)(F)F)nc1)c1c(O)nsc1Nc1cccc(Oc2ccccc2)c1 [compound 182]", "100 to 500 nM"),
    ("CC(C)NC(=N)c1c(O)nsc1Nc1ccc(Oc2ccc(F)cc2Cl)c(F)c1 [compound 369]", "1 to 100 nM"),
    ("CC(=O)NC(=N)c1c(O)nsc1Nc1ccc(Oc2ccccc2)cc1 [compound 150]", "> 500 nM"),
    ("CCn1sc(Nc2ccc(Oc3ccccc3)cc2)c(C(=N)NC(C)C)c1=O [compound 194]", "> 500 nM"),
    ("CC(CO)NC(=N)c1c(O)nsc1Nc1ccc(Oc2ccc(F)cc2Cl)cc1C(F)(F)F (stereo not drawn) [compound 408]", "1 to 100 nM"),
    ("N#Cc1cccc(Nc2snc(O)c2C(N)=NCC2CCCCC2)c1 [compound 71]", "> 500 nM"),
    ("CC(O)CNC(=N)c1c(O)nsc1Nc1ccc(Oc2ccccc2C(=O)NCC(C)O)cc1 (stereo not drawn) [compound 507]", "> 500 nM"),
    ("CC(CO)NC(=N)c1c(O)nsc1Nc1ccc(Oc2cccc(F)c2F)nc1 (stereo not drawn) [compound 432]", "100 to 500 nM"),
    ("C=CCNC(=N)c1c(O)nsc1Nc1ccc(Oc2ccccc2)cc1 [compound 200]", "1 to 100 nM"),
    ("CC(O)CNC(=N)c1c(O)nsc1Nc1cc(F)c(Oc2cc(Cl)ccc2Cl)cc1F (stereo not drawn) [compound 478]", "1 to 100 nM"),
    ("CC(C)NC(=N)c1c(O)nsc1Nc1ccc(S(=O)(=O)c2ccccc2)cc1 [compound 244]", "> 500 nM"),
    ("CC(C)NC(=N)c1c(O)nsc1Nc1ccc(Oc2cccc(Cl)c2Cl)c(Cl)c1 [compound 383]", "1 to 100 nM"),
    ("CC(C)NC(=N)c1c(O)nsc1Nc1ccc(O)c(Cl)c1 [compound 243]", "100 to 500 nM"),
    ("N=C(NCc1ccc(C(F)(F)F)cc1)c1c(O)nsc1Nc1ccc(Oc2ccccc2)cc1 [Cpd 21]", "1 to 100 nM"),
    ("CC(O)CNC(=N)c1c(O)nsc1Nc1ccc(Oc2cc(F)cc(F)c2)cc1 (stereo not drawn) [compound 422]", "1 to 100 nM"),
    ("N=C(NCCO)c1c(O)nsc1Nc1ccc(Oc2cncnc2)cc1 [compound 171]", "> 500 nM"),
    ("N=C(NCC(O)CO)c1c(O)nsc1Nc1ccc(Cc2ccccc2)cc1 (stereo not drawn) [compound 129]", "100 to 500 nM"),
]

###

- ASSAYED_TARGET: MEK1^CA (human GST-MEK1, constitutively active, Ser218Asp and Ser222Asp) (Homo sapiens, UniProt Q02750, S218D/S222D)
- Construct: GST; made in house; host or cells: Escherichia coli
- PROTOCOL_NOTES: MEK1 enzymatic activity assay (MEK1^CA / ERK2 / MBP, [γ-33P]ATP incorporation)
- Format: biochemical
- CONDITION_LABEL: Table 1, compounds of formula I; read-out: Avg IC50
pIC50: −log10 of the molar value.

# COMPOUND, pIC50
measured = [
    ("CNC(=N)c1c(O)nsc1Nc1ccc(Oc2ccccc2)cc1", "7.00 to 9.00"),
    ("N=C(NCC(O)CO)c1c(O)nsc1Nc1ccc(Cl)cc1 (stereo not drawn)", "6.30 to 7.00"),
    ("N=C(NCC1CCCCC1)c1c(O)nsc1NCc1ccc(C(F)(F)F)cc1", "< 6.30"),
    ("N=C(NCCN1CCOCC1)c1c(Nc2ccc(Oc3ccccc3)cc2)s[nH]c1=O [compound 54]", "6.30 to 7.00"),
    ("N=C(NCCO)c1c(O)nsc1Nc1ccc(C2CCCCC2)cc1", "< 6.30"),
    ("CCCNC(=N)c1c(O)nsc1Nc1ccc(Oc2ccccc2)cc1", "6.30 to 7.00"),
    ("CN(C)CCNC(=N)c1c(O)nsc1Nc1ccc(Oc2ccc(Cl)cc2Cl)cc1", "6.30 to 7.00"),
    ("N=C(NCC1CCCCC1)c1c(O)nsc1Nc1ccc(C(F)(F)F)cc1Cl", "< 6.30"),
    ("N=C(NN1CCOCC1)c1c(O)nsc1Nc1ccc(Oc2ccccc2)cc1", "7.00 to 9.00"),
]
